- target under test: human TLR8 (Homo sapiens, UniProt Q9NR97)
- Sequence (Q9NR97 27-1041): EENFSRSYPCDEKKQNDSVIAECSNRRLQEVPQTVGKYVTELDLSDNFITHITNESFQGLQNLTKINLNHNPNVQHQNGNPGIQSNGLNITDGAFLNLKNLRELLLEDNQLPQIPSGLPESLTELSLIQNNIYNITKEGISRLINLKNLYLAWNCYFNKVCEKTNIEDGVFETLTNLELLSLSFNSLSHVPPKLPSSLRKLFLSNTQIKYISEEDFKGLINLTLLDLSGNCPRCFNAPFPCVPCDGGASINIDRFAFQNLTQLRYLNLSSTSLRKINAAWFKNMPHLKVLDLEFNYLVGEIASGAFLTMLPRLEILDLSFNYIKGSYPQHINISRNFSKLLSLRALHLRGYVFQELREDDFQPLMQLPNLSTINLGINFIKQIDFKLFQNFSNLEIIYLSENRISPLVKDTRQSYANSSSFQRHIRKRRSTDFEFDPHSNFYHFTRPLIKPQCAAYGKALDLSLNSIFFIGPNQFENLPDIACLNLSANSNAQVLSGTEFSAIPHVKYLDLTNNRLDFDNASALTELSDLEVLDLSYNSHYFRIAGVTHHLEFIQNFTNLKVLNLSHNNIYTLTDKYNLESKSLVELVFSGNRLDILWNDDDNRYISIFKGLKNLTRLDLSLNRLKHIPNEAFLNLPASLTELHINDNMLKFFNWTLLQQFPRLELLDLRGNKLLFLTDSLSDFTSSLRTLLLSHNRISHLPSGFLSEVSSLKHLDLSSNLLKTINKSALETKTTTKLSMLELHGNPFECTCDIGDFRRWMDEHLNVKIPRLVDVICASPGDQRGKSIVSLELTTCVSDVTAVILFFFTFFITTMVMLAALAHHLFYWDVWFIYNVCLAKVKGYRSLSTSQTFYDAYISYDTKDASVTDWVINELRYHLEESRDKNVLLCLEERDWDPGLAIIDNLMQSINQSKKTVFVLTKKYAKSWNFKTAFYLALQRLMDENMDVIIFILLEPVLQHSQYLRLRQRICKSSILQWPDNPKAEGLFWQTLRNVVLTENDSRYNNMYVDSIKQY
- assay comment: TLR8 inhibition reporter assay (HEK-Blue cells, SEAP reporter, R848 stimulation)
- test conditions: HEK-Blue cells overexpressing human TLR8, R848 15.9 μM
- Description: TLR7/8/9 Inhibition Reporter Assays Briefly, cells are seeded into Greiner 384 well plates (15000 cells per well for TLR7, 20,000 for TLR8 and 25,000 for TLR9) and then treated with test compounds in DMSO to yield a final dose response concentration range of 0.05 nM-50 μM. […] The percent inhibition is determined as the % reduction in the HEK-Blue signal present in wells treated with agonist plus DMSO alone compared to wells treated with a known inhibitor.
observed property: IC50 (nM)

compound	target under test	scale unit	IC50
CCc1c(-c2ccc(OC)c(OC)c2)[nH]c2ccc(C3CCN(C(=O)CN4CCCC(C(=O)O)C4)CC3)cc12 (racemic)	human TLR8 (Homo sapiens, UniProt Q9NR97)	nM	6550
COc1ccc(-c2[nH]c3ccc(C4CCN(CC(=O)N5CCN(C(C)C)CC5)CC4)cc3c2CC(F)(F)F)cc1OC	human TLR8 (Homo sapiens, UniProt Q9NR97)	nM	109
COc1ccc(-c2[nH]c3ccc(C4CCN(CC(=O)Nc5cc(C(C)(C)C)[nH]n5)CC4)cc3c2CC(F)(F)F)cc1OC	human TLR8 (Homo sapiens, UniProt Q9NR97)	nM	587
COc1ccc(-c2[nH]c3ccc(C4CCN(C(=O)CN5CCC[C@H](C(=O)N6CCN(C(C)C)CC6)C5)CC4)cc3c2C(C)C)cc1OC	human TLR8 (Homo sapiens, UniProt Q9NR97)	nM	17
COc1ccc(-c2[nH]c3ccc(C4CCNCC4F)cc3c2C(C)C)cc1OC (single isomer, unassigned) [Example 321]	human TLR8 (Homo sapiens, UniProt Q9NR97)	nM	21

(1) CCc1c(-c2ccc(OC)c(OC)c2)[nH]c2ccc(C3CCN(C(=O)C4CCCNC4)CC3)cc12 (stereo not shown)
(2) COc1ccc(-c2[nH]c3ccc(C4CCN(C(=O)CN5CCN(CC(=O)NC(C)C)CC5)CC4)cc3c2C(C)C)cc1OC
input: Determine, for 1 and 2 , which has the greater value of IC50. Indicate which entry you chose by stating its label.
output: 1
(1: 136 nM, 2: 43 nM)
